The measured values listed here are drawn from patent US20250257130A1.

target: T1, human ROR1 on cells (HEK293T-hROR1, PANC-1, A549) (human, UniProt Q01973 30-937); experiment: flow cytometry, A549 cells
T1 construct: whole, on cells; one molecule for the three cell lines; also called huROR1; cell surface ROR1
T1 sequence (Q01973 30-937): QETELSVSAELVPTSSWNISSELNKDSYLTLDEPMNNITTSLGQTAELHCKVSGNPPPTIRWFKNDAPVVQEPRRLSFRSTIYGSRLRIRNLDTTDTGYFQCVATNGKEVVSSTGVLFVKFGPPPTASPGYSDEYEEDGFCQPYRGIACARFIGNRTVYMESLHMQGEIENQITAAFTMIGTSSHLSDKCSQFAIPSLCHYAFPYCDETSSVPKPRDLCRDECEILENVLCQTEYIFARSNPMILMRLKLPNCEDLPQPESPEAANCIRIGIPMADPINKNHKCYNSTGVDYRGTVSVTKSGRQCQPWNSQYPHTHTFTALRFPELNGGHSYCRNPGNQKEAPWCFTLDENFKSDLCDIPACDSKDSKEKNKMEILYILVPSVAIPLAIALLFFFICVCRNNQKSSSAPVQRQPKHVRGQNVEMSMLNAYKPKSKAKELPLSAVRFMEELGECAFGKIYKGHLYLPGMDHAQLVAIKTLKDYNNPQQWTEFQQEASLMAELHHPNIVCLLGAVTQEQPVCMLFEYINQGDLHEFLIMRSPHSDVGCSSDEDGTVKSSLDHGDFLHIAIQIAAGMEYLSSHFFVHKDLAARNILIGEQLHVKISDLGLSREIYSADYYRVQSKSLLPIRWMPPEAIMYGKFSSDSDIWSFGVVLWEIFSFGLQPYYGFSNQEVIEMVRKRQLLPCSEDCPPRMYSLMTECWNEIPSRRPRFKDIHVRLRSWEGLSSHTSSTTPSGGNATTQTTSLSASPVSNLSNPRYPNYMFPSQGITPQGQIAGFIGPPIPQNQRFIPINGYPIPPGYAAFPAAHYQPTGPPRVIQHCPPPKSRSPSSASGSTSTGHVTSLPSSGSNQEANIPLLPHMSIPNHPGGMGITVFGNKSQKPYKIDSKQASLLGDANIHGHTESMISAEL
Here, each record is paired with measured EC50 data.

binder: PR303145 (antibody, human IgG1, V domains shown, HCAb (heavy chain-only, human IgG1 Fc), no light chain) VH: QVQLVESGGGLVKPGGSLRISCAASGFTFSNYNMSWIRQAPGKGVEWVSHISGSGRTIYYAESVKGRFTISRDNAKNSLYLQMNSLRAEDTAMYYCARDLSSGWYEDFDYWGQGTLVTVSS
unitTag: µg/mL
EC50: 0.93
--
binder: PR303147 (antibody, human IgG1, V domains shown, HCAb (heavy chain-only, human IgG1 Fc), no light chain) VH: EVQLVESGGGLVQPGGSLRLSCAASGFTFSNFWMYWVRQAPGKGLVWVSRINSDGSSTNYADSVKGRFTISRDNAKNTLYLQMNSLRVEDTAVYSCAREGSGWYEDFDYWGQGTLVTVSS
unitTag: µg/mL
EC50: 6.46
